# Tested on: HCT-116
# test_details: Antiproliferative activity against HCT116 cells
# Assay type: functional, cell-based
# condition_set: Homo sapiens
Listed here: items and their measured IC50.
Respond with the bare value in nM.

1) CN1CCN(c2ccc(C(=O)Nc3n[nH]c4c3CN(C(=O)[C@H](O)c3ccccc3)C4)cc2)CC1 :: 97

Summary for this molecule, `CN1CCN(c2ccc(C(=O)Nc3n[nH]c4c3CN(C(=O)Cc3ccccc3)C4)cc2)CC1` : IC50 is 220

Summary for this molecule, CO[C@@H](C(=O)N1Cc2[nH]nc(NC(=O)c3ccc(N4CCN(C)CC4)cc3)c2C1)c1ccccc1 [DANUSERTIB] : IC50 is 31

Summary for this molecule, `C[C@@H](C(=O)N1Cc2[nH]nc(NC(=O)c3ccc(N4CCN(C)CC4)cc3)c2C1)c1ccccc1` : IC50 is 21

Summary for this molecule, `CN1CCN(c2ccc(C(=O)Nc3n[nH]c4c3CN(C(=O)[C@H](F)c3ccccc3)C4)cc2)CC1` : IC50 is 50
